Origin of the recorded values: patent US20130303518A1

- System: HT-29 (human colon cancer cells)
- assay_remarks: Inhibition of cancer cell proliferation assay (SRB)
- Assay type: cell-based
- particulars: mean ± SD, 72 hours
measured_property: IC50

Query :: Please give the measured IC50 for this molecule: `Cc1c(/C=C2\C(=O)Nc3ccc(F)cc32)[nH]c2c1C(=O)N(C[C@H](O)CN1CCOCC1)CCC2`
Result :: 2.4 µM

---

- System: A431 (human epidermoid carcinoma cells)
- assay_remarks: Inhibition of cancer cell proliferation assay (SRB)
- Format: cell-based
- particulars: A-431, 72 h, read-out: IC50 A431
measured_property: IC50 (µM)
Unit µM implied. Number only.

Query :: Look up IC50 with A431 (human epidermoid carcinoma cells) for this molecule: Cc1c(/C=C2\C(=O)Nc3ccc(F)cc32)[nH]c2c1C(=O)N(C[C@H](O)CN1CCOCC1)CCC2 [Example 53]
Result :: 2
